test_method_notes: Compound solubility in water
measurement_label: solubility (µg/mL)

compound="COc1nc2c(N3CCOCC3)cc(F)cc2n1C(=O)NCCC(C)C [Example 212]" assay_result=8
compound="CC(C)CCNC(=O)n1cnc2ccc(-c3cncnc3)cc21 [Example 103a]" assay_result=14.3
compound="COc1nc2ccc(N3CCOCC3)cc2n1C(=O)NCCCc1nccs1 [Example 196]" assay_result=35
compound="CC(C)CNC(=O)n1cnc2c(C(F)(F)F)c(-c3cncnc3)ccc21 [Example 76]" assay_result=10
compound="CC(C)CNC(=O)n1cnc2ccc(-c3cncs3)cc21 [Example 126b]" assay_result=14
compound="O=C(NCCOc1ccccc1)n1cnc2c(N3CCN4CCCC4C3)cccc21 (stereo not shown) [Example 316]" assay_result=27
compound="Cc1ccc(CCNC(=O)n2cnc3ccccc32)cc1 [Example 108]" assay_result=6.8
compound="COc1nc2c(C#N)cccc2n1C(=O)NCC#CC(C)C [Example 140]" assay_result=10

I = CN1CCC2(CC1)CN(c1cccc3c1ncn3C(=O)NCCC#Cc1ccccc1)C2 [Example 366]
II = CC(C)CCNC(=O)n1cnc2c(N3CC4CCC(C3)O4)cccc21 [Example 221]
III = COc1nc2cc(-c3cccnc3)ccc2n1C(=O)NCCc1ccccc1 [Example 30a]
IV = O=C(NCCc1ccccc1)n1cnc2nc(C(F)(F)F)ccc21 [Example 66b]
input: Ordering: ascending solubility. Put the labels in the order asked and list them.
output: III, II, IV, I
(III: 1.6 µg/mL, II: 5 µg/mL, IV: 12.9 µg/mL, I: 21 µg/mL)

a = CN1C[C@H]2C[C@@H]1CN2c1cccc2c1ncn2C(=O)NCCCc1ccccc1 [Example 246]
b = CN1CCN(c2cccc3c2ncn3C(=O)NCC#Cc2ccccc2F)CC1 [Example 338]
input: API: POST /compare with a and b ; response names the item with higher solubility. Indicate your choice by writing its label.
output: a

a = CN1CCN(c2ccc3c(c2)ncn3C(=O)NCCc2ccccc2)CC1 [Example 15a]
b = CN1CCN(c2cccc3c2ncn3C(=O)NCCCC2CC(F)(F)C2)CC1 [Example 260]
input: Would you mind telling me which has the lower recorded solubility between a and b ? Indicate your choice by writing its label.
output: a
